B1: tRNA (parent)
chain: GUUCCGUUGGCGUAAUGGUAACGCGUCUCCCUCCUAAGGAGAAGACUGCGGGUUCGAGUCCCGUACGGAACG

Variants of: B1
method description: yeast fitness relative to wild type (ratio to wild type); higher = fitter; tRNA-Arg(CCU), competitive growth, 37 C, YPD
Fewer inactive variants are shown than the library holds.
Each entry gets n if its yeast fitness stays under 0.6, and y if its yeast fitness is 0.6 or above.

>>> print(df.to_string())
                  variant_description  category_label
 0             C4G U7C C27A C66A A70U               n
 1                     C34G G63A A70C               n
 2             U2A U3A U16C C24U C62U               y
 3                C24G A37G U59A G67A               n
 4                U26G C27U G56A A65C               n
 5                          A40U G44A               y
 6                          G18A A36C               n
 7             U7A G9C A14G G17C G48A               n
 8                          A14G U32A               n
 9                          U19A G39A               y
10       C5G U35C G44C C62A G68C A69U               n
11                     G38U G48A A70U               y
12                          C22U G52C               n
13                C22G U28A A40U A57U               y
14                     C31A A43U A57G               n
15                     A14G A36G A45U               n
16           U35C G44A G48C C55G A69U               n
17                 U2A U35C G38C U47G               n
18                          G39C A57G               y
19                           C5G G17C               y
20                     G25A A40U G58C               y
21                C24U G41A C62A A69U               n
22            U7C C34U A45C C60G A65C               n
23            C5G C11A A14G G25C C29G               n
24                     G12A A45C C49G               y
25                G10C C34A U53A U54G               n
26                       U2G C4U G23C               n
27                 C5U U16A C24U C66G               n
28                     C30U U35A A69U               n
29                     A20G U53C G56C               n
30       C4U U26C A36C A37G U64A A70C               n
31      U13C C33U A45G G50A C66A A70U               n
32                     A20C G68A A70C               n
33           G12C C29U A42U U47C C62U               n
34           C11U C24G A36C A37G A70C               n
35                     A15G C30G G63A               n
36                     A21G G56U G58C               y
37        C4G C5G C31A U35C C46A G67A               n
38                          G17A A42G               y
39                          G10A G18A               n
40  U7C A20U C29U C30G C34A U35A C66A               n
41                  U2C G9C U13C A20C               n
42                          A14U C22A               y
43                G17A U26C C61U G67A               n
44                     C31U C46U G51A               y
45                     A14C C34A G48C               n
46                G12A A15U C24A A45G               n
47                     A42C U47C G58C               y
48           C27G C30U U32C G51C U64A               n
49                A21U G48C C55A C66U               n
50                A15C U26C G56A C61U               n
51                A15G A42C G51C G67C               n
52           G12A U28G C30G C49U U64C               n
53                     C27G U59G G68C               n
54                           C4U A40G               y
55                     C34U G41C C60A               n
56                C11U G23C G41A C62A               n
57                      C4A C61A G67A               n
58                     A21C G23C G52C               n
59                     A14U U35C U53G               y
60                 U8A C34G A65U C66A               n
61                          G41C U54A               y
62                A21C C22G G38C A57C               n
63                A15U C22G G52A A65U               n
64            U8C C11U C22G C55G G63C               n
65            C4G A15C U26G G41C A69U               n
66        C5A U8C A20G C34G A43U C66U               n
67                      U7A A36G C60A               n
68       C5G C34G A40G G48C G63A C66U               n
69                          A20U C61U               y
70           A14G A36U A37G C46A G48A               n
71                       U2A C5A A40U               y
72  C4A C22U A40G A43U C46G C49G C62U               n
73                          C29U G51C               n
74                A14C G50A C55G C62A               y
75                     G23A A45U G56A               y
76                               U59G               y
77       U8A C30G G56C A57G G68A A69C               n
78                 C4A A36G C55A C61U               n
79                          G48C G67C               n
80                     G48A C61U A65C               n
81           A21G C30G A36G C46G A57U               n
82                U26A G38C G58C U64A               n
